target: human RXFP1 (Homo sapiens, UniProt Q9HBX9); construct: expressed in transfected cells; experiment: RXFP1 cAMP assay (hRXFP1 HEK293 cAMP assay, HTRF); assay type: cell-based; details: HEK293 cells stably expressing human RXFP1, 30 min at room temperature, read-out: cAMP hRXFP1 HEK293 Assay EC50
Sequence (Q9HBX9 whole entry): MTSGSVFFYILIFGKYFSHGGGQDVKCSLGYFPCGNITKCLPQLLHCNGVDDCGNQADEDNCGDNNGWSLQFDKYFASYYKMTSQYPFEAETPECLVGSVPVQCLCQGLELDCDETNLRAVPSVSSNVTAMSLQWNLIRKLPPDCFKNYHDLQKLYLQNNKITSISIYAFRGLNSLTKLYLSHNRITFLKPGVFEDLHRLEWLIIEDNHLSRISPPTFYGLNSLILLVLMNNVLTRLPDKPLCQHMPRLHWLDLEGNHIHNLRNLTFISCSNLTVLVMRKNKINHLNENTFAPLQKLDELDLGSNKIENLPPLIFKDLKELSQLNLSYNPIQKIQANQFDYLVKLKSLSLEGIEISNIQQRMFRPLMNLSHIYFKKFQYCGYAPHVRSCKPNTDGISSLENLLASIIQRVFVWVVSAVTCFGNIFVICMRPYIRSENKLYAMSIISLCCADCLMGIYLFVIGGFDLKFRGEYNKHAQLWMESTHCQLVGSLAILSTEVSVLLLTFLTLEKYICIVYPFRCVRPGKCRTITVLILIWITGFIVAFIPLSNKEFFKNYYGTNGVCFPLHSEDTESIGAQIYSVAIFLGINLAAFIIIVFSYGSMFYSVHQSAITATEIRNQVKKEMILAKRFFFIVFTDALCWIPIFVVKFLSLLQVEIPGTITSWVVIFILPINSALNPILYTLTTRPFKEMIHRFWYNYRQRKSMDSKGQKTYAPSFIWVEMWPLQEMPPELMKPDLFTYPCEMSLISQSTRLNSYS
log10(EC50) for assorted compounds
Response schema: value (number) is log10 of EC50 in units of µM.

The examples below pair each entry with its known result.
{"columns": ["compound", "log10(EC50)"],
 "data": [
  ["COc1ccc(-c2cc(C(COC(=O)NC3CCC3)C(F)(F)F)ccc2F)cc1C(=O)N[C@H]1[C@@H](C(=O)Nc2ccc(F)c(C(F)(F)F)c2)[C@H]2CC[C@@H]1/C2=C\\C1CCCC1 (stereo partly drawn) [compound 893]", -2.66],
  ["COc1ccc(-c2ccc(C(=O)O)cc2F)cc1C(=O)N[C@@H]1C2CCC(/C2=C/c2ccccc2)[C@@H]1C(=O)Nc1ccc(F)c(C(F)(F)F)c1 (stereo partly drawn) [compound 169]", -1.36],
  ["COC(=O)NC(C(=O)O)c1ccc(F)c(-c2ccc(OC)c(C(=O)N[C@@H]3C4CCC(/C4=C/C(F)(F)F)[C@@H]3C(=O)Nc3ccc(F)c(C(F)(F)F)c3)c2)c1 (stereo partly drawn) [compound 186]", -1.60]
]}

Query: Given the entry COc1c(F)cc(C2=NOC3CC(CO)CC23)cc1C(=O)N[C@H]1[C@@H](C(=O)N[C@H](C)C2(C)CC2(F)F)[C@H]2CC[C@@H]1/C2=C\C1CC1 (stereo partly drawn) [compound 756] , report its measured log10(EC50).
Response: -3.40

Query: Could you do the same for COc1ccc(C2=CCNCC2)cc1C(=O)N[C@@H]1C2CCC(C2=C(C)C)[C@@H]1C(=O)Nc1ccc(F)c(C(F)(F)F)c1 (stereo partly drawn) [compound 148] , please?
Response: -0.04

Query: What about O=C(NC1CCC1)OC(c1ccc(F)c(-c2ccc(OCc3ccccc3)c(C(=O)N[C@@H]3C4CCC(/C4=C/C4CC4)[C@@H]3C(=O)Nc3ccc(F)c(C(F)(F)F)c3)c2)c1)C(F)(F)F (stereo partly drawn) [compound 252] ?
Response: -1.96

====

Below, each of the molecules is paired with its reported pEC50 value.
molecular target: human RXFP1 (Homo sapiens, UniProt Q9HBX9); construct: expressed in transfected cells; assay: RXFP1 cAMP assay (hRXFP1 HEK293 cAMP assay, HTRF); assay type: cell-based; conditions: HEK293 cells stably expressing human RXFP1, 30 min at room temperature, read-out: cAMP hRXFP1 HEK293 Assay EC50
# pEC50: negative log10 of molar concentration; output just the value

Worked set:
{"columns": ["molecule", "tested.target", "result.number"],
 "data": [
  ["O=C(N[C@H]1[C@@H](C(=O)Nc2ccc(F)c(C(F)(F)F)c2)[C@H]2CC[C@@H]1/C2=C\\C1CC1)c1cc(C2=NOC3COCC23)cc(F)c1OCC1CC1 (stereo partly drawn) [compound 799]", "human RXFP1 (Homo sapiens, UniProt Q9HBX9)", 8.33],
  ["COc1ccc(C2=NOC3COCC23)cc1C(=O)N[C@H]1[C@@H](C(=O)NC2CCC(C(F)(F)F)C2)[C@H]2CC[C@@H]1/C2=C\\C1CC1 (single isomer, unassigned) [Example 629]", "human RXFP1 (Homo sapiens, UniProt Q9HBX9)", 6.75]
]}

Lab note: next molecule to report on.
Query: What value of measured pEC50 is listed for COc1ccc(C2=NOC3COCC23)cc1C(=O)N[C@H]1[C@@H](C(=O)NC2(C(C)C)CC2)[C@H]2CC[C@@H]1/C2=C\C1CC1 (stereo partly drawn) [compound 584] ?
Response: 7.11

// provenance: patent US20250221966A1
